Molecular target: GlcNAc(b1-3)Gal(b1-4)GlcNAc(b1-6)[Gal(b1-3)]GalNAc
Test: glycan array binding signal (z-score within array); higher = stronger binding
Details: glycan notation: IUPAC condensed, linker removed
About 410 targets per protein were measured; listed, in parts, are those with the strongest signals and a random draw of the rest.
PARAMETER_MEASURED: glycan array binding signal (z-score)
Reply with the value as a number alone.

Use the examples below as a reference point.
BINDER	glycan array binding signal (z-score)
CBP21 (Serratia marcescens), O83009 (protein) MNKTSRTLLSLGLLSAAMFGVSQQANAHGYVESPASRAYQCKLQLNTQCGSVQYEPQSVEGLKGFPQAGPADGHIASADKSTFFELDQQTPTRWNKLNLKTGPNSFTWKLTARHSTTSWRYFITKPNWDASQPLTRASFDLTPFCQFNDGGAIPAAQVTHQCNIPADRSGSHVILAVWDIADTANAFYQAIDVNLSK	-0.256
Fm1D (Escherichia coli) (protein) FSCNVDGGSSIGAGTTSVYVNLDPVIQPGQNLVVDLSQHISCWNDYGGWYDTDHINLVQGSAFAGSLQSYKGSLYWNNVTYPFPLTTNTNVLDIGDKTPMPLPLKLYITPVGAAGGVVIKAGEVIARIHMYKIATLGSGNPRNFTWNIISNNSVVMPTHHHHHH	4.57
Tp0751, 83732 (protein) MSYYHHHHHHLESTSLYKKAGFQHGHVPPRRIPPHDTFGALPTAALPSNARDTAAHPSDTADNTSGSSTTTDPRSHGNAPPAPVGGAAQTHTQPPVQTAMRIALWNRATHGEQGALQHLLAGLWIQTEISPNSGDIHPLLFFDREHAEITFSRASVQEIFLVDSAHTHRKTVSFLTRNTAISSIRRRLEVTFESHEVIHVRAVEDVARLKIGSTSMWDGQYTRYHAGPASAPSP	-0.81
Aap arpt (Staphylococcus epidermidis) (protein) NNEAPQMSSTLQAEEGSNAEAPQSEPTKAEEGGNAEAAQSEPTKAEEGGNAEAPQSEPTKAEEGGNAEAAQSEPTKTEEGSNVKAAQSEPTKAEEGSNAEAPQSEPTKTEEGSNAKAAQSEPTKAEEGGNAEAAQSEPTKTEEGSNAEAPQSEPTKAEEGGYAEAPQSEPTKTEEGGNAEAPNVPTIKA	-0.695
Epa12 (Candida glabrata) (protein) MGSSHHHHHHSSGLVPRGSHMLEPDNSLQIFDSFLSNPSKYPLGCSPKITNPKKGLSMELYSYPYRKKGSHPCWDPAYLDPNFPRVGYKKNKLIARVDGVSGDINFNFHPKRQCTPIADYLPPNFNYNEPITTTNFTMLLYGYFKPKVTGLHTFDISADDLLFMNFGAGNAFDCCRRDSTADTFGNYVAWAIWGRRIVRNKLTVRLDKGIYYPLRLFFNNRDYYGQMRLTFKTEHGSERITDFSDYFFSVDDTSEGCPGLITYESECADVKSSTVLETDYITIQAEKE	-0.32

Ask | What does the data say about its glycan array binding signal (z-score)? Entry: SSP1 (Sclerotinia sclerotiorum), XP_001584968 (protein) MGSSHHHHHHSSGLVPRGSHMSLLTTELACTSAPDQVLHLFFQDGQNILEARSPDGGNVWTTQDTIIAKDGDYNGSSMTCYYVDKDANFDNQPSIHLLYMNKDKQLTEKVKRMKGDNPIWEDAKVPDEVRKGPEQYSKLTSGSFNQGTGWNPNGSQWAYFSASKDGKMGIVEIRRTPKDPWHTETILEEKWGDELPGTALACVIGNGKIRVFLQHHDYSIILYENQNNTWHDRGTFIPKDKVQATTPLACTMTKDGSVHLFYVSKSNKIIHCTDGKKEEELINFFPGSKLGATSVENKITLFFRNLNPVNEVGTLENENGSWKHGTTVIPA
Reply | -0.156

Every entry's value here was drawn from the supplement of paper PMC8728848.
